system: Nilaparvata lugens; assay: Insecticidal activity against Nilaparvata lugens (brown planthopper) assessed as mortality at 50 ppm; assay type: functional
READOUT_TYPE: mortality (%)
Reply with just the number (in %).

Example entries begin here.
{"MOLECULE": "CN(C)CC(CCSC(=O)c1ccccc1)SC(=O)c1ccccc1.O.O=C(O)C(=O)O (centres undefined)", "mortality, %": 100}
{"MOLECULE": "CC(C)NC(=O)SCC(CSC(=O)NC(C)C)CN(C)C.O=C(O)C(=O)O", "mortality, %": 0}
{"MOLECULE": "CN(C)C[C@@H]1CCSC(C(=O)c2ccccc2)(C(=O)c2ccccc2)S1", "mortality, %": 90}
{"MOLECULE": "CSCCC(CN(C)C)SC.O=C(O)C(=O)O (centres undefined)", "mortality, %": 30}
{"MOLECULE": "CN(C)CC1CSC(C(=O)c2ccccc2)(C(=O)c2ccccc2)SC1", "mortality, %": 100}
{"MOLECULE": "CSCCC(CN(C)C)SC (centres undefined)", "mortality, %": 10}
{"MOLECULE": "CCC(=O)SCC(CSC(=O)CC)CN(C)C", "mortality, %": 70}
{"MOLECULE": "CC(C)NC(=O)SCC(CSC(=O)NC(C)C)CN(C)C", "mortality, %": 20}

Could you now look at the following molecule, please?
Prompt: For the molecule CCN(CC)C(=O)[C@]1(C#N)SC[C@H](CN(C)C)CS1 , what mortality is on record?
Response: 100
